- Study system: NRAS G12C (Homo sapiens (Human), UniProt P01111+P62937, G12C)
- Sequence (P01111 whole entry G12C): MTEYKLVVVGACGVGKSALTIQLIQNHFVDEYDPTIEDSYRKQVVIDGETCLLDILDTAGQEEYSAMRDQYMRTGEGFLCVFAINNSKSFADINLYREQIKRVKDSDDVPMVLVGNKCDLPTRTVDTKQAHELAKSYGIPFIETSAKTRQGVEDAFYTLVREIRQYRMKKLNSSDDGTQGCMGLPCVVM
- Sequence (P62937 whole entry): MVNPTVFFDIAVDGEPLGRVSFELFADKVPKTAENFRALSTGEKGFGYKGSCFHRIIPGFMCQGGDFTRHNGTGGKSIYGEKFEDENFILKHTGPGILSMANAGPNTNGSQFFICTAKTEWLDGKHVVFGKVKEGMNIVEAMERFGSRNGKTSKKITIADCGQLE
- Assay explanation: Ras-Raf (BRAF RBD) disruption / FRET / MOA assay, NRAS G12C
- Format: biochemical
- Experimental setup: read-out: IC50* NRAS G12C FRET data
A collection of compounds and their measured IC50
Measured attribute: IC50

{"Compound": "CC#CC(=O)N1CC[C@H](C(=O)N(C)[C@H](C(=O)N[C@H]2Cc3nc(cs3)-c3ccc4c(c3)c(c(-c3cccnc3[C@H](C)OC)n4CC)CC(C)(C)COC(=O)[C@@H]3CCCN(N3)C2=O)C2CCCC2)C1 (atropisomer, axis not shown)", "Endpoint result": "1 to 10 µM"}
{"Compound": "CCn1c(-c2cccnc2[C@H](C)OC)c2c3cc(ccc31)-c1cc(cc(C(F)F)c1)C[C@H](NC(=O)C(COC1CN(C(=O)C#CC(C)(C)N(C)C)C1)C(C)C)C(=O)N1CCC[C@H](N1)C(=O)OCC(C)(C)C2 (mixture of isomers)", "Endpoint result": "0.1 to 1 µM"}
{"Compound": "C=CC(=O)N1CCC[C@]12CCN(C(=O)N(C)[C@H](C(=O)N[C@H]1Cc3nc(cs3)-c3ccc4c(c3)c(c(-c3cccnc3[C@H](C)OC)n4CC)CC(C)(C)COC(=O)[C@@H]3CCCN(N3)C1=O)C(C)C)C2 (atropisomer, axis not shown)", "Endpoint result": "0.1 to 1 µM"}
{"Compound": "CCn1c(-c2cccnc2[C@H](C)OC)c2c3cc(ccc31)-c1csc(n1)C[C@H](NC(=O)CCO[C@H]1CCN(C(=O)C#CC(C)(C)N3CCC3)C1)C(=O)N1CCC[C@H](N1)C(=O)OCC(C)(C)C2 (atropisomer, axis not shown)", "Endpoint result": "0.01 to 0.1 µM"}

###

- Study system: KRAS G13D (Homo sapiens (Human), UniProt P01116+P62937, G13D)
- Sequence (P01116-2 other isoform, or with tags, fused parts or gaps G13D): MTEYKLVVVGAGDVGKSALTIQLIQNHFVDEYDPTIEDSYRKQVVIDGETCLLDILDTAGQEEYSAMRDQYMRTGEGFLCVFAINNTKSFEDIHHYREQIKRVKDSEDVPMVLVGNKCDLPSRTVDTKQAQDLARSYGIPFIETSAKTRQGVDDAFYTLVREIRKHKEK
- Sequence (P62937 whole entry): as the sequence (P62937 whole entry) above
- Assay explanation: Ras-Raf (BRAF RBD) disruption / FRET / MOA assay, KRAS G13D
- Format: biochemical
- Experimental setup: read-out: IC50* KRAS G13D FRET data
pIC50: −log10 of the molar value.
Measured attribute: pIC50

{"Compound": "C=CC(=O)N1CC[C@H](C(=O)N(C)[C@H](C(=O)N[C@H]2Cc3cc(O)cc(c3)-c3ccc4c(c3)c(c(-c3cc(CN(C)C)cnc3[C@H](C)OC)n4CC)CC(C)(C)COC(=O)[C@@H]3CCCN(N3)C2=O)C(C)C)C1 (atropisomer, axis not shown) [Example A537]", "Endpoint result": "7.00 to 8.00"}
{"Compound": "C=CC(=O)N1CCOC2(CCN(C(=O)N(C)[C@H](C(=O)N[C@H]3Cc4nsc(n4)-c4ccc5c(c4)c(c(-c4cccnc4[C@H](C)OC)n5CC)CC(C)(C)COC(=O)[C@@H]4CCCN(N4)C3=O)C(C)C)CC2)C1 (atropisomer, axis not shown) [Example A545]", "Endpoint result": "6.00 to 7.00"}
{"Compound": "CCn1c(-c2ccccc2CN(C)C)c2c3cc(ccc31)-c1cc(O)cc(c1)C[C@H](NC(=O)[C@H](C(C)C)N(C)C(=O)c1ncc(NC(=O)/C=C/CN(C)C)s1)C(=O)N1CCC[C@H](N1)C(=O)OCC(C)(C)C2 (atropisomer, axis not shown) [Example A163]", "Endpoint result": "5.00 to 6.00"}
{"Compound": "CCn1c(-c2cccnc2[C@H](C)OC)c2c3cc(ccc31)-c1cccc(c1)C[C@H](NC(=O)[C@H](C(C)C)N(C)C(=O)[C@H]1CCN(C(=O)/C=C/CF)C1)C(=O)N1CCC[C@H](N1)C(=O)OCC(C)(C)C2 [Example A449]", "Endpoint result": "5.00 to 6.00"}

###

- Study system: KRAS G12D (Homo sapiens (Human), UniProt P01116+P62937, G12D)
- Sequence (P01116-2 other isoform, or with tags, fused parts or gaps G12D, one chain of several): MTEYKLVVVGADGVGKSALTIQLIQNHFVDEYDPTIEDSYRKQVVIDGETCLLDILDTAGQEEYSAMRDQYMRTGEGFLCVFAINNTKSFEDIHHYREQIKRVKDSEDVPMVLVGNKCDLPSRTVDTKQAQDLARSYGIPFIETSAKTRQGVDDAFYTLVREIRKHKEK
- Assay explanation: Ras-Raf (BRAF RBD) disruption / FRET / MOA assay, KRAS G12D
- Type: biochemical
- Experimental setup: Ras-Raf disruption/FRET/MOA assay; class symbols; read-out: KRAS G12D FRET data IC50
pIC50: −log10 of the molar value.
Measured attribute: pIC50

{"Compound": "C=CC(=O)N1CC[C@H](C(=O)N(C)[C@H](C(=O)N[C@H]2Cc3csc(n3)-c3ccc4c(c3)c(c(-c3cccnc3COC)n4CC)CC(C)(C)COC(=O)[C@@H]3CCCN(N3)C2=O)C(C)C)C1", "Study system": "KRAS G12D (Homo sapiens (Human), UniProt P01116+P62937, G12D)", "Measured attribute": "pIC50", "Endpoint result": "< 5.00"}
{"Compound": "CCn1c(-c2cccnc2COC)c2c3cc(ccc31)-c1cc(O)cc(c1)C[C@H](NC(=O)[C@@H](C(C)C)N(C)C(=O)[C@H]1CCN(C(=O)C#CCN3CCOCC3)C1)C(=O)N1CCC[C@H](N1)C(=O)OCC(C)(C)C2", "Study system": "KRAS G12D (Homo sapiens (Human), UniProt P01116+P62937, G12D)", "Measured attribute": "pIC50", "Endpoint result": "< 5.00"}
{"Compound": "C=CC(=O)N(C)CCN1CCN(C(=O)N(C)[C@H](C(=O)N[C@H]2Cc3cccc(c3)-c3ccc4c(c3)c(c(-c3cccnc3[C@H](C)OC)n4CC)CC(C)(C)COC(=O)[C@@H]3CCCN(N3)C2=O)C(C)C)C[C@H]1C (atropisomer, axis not shown)", "Study system": "KRAS G12D (Homo sapiens (Human), UniProt P01116+P62937, G12D)", "Measured attribute": "pIC50", "Endpoint result": "5.00 to 6.00"}
{"Compound": "C=CC(=O)N1CC(OCC(C(=O)N[C@H]2Cc3cccc(c3)-c3ccc4c(c3)c(c(-c3cccnc3[C@H](C)OC)n4CC)CC(C)(C)COC(=O)[C@@H]3CCCN(N3)C2=O)C(C)C)C1 (mixture of isomers) [Example A484]", "Study system": "KRAS G12D (Homo sapiens (Human), UniProt P01116+P62937, G12D)", "Measured attribute": "pIC50", "Endpoint result": "< 5.00"}
{"Compound": "CCn1c(-c2cccnc2[C@H](C)OC)c2c3cc(ccc31)-c1cccc(c1)C[C@H](NC(=O)[C@H](C(C)C)N(C)C(=O)C1CCN(C(=O)C#C[C@@H]3CC(F)(F)CN3C)C1)C(=O)N1CCC[C@H](N1)C(=O)OCC(C)(C)C2 (some centres unmarked)", "Study system": "KRAS G12D (Homo sapiens (Human), UniProt P01116+P62937, G12D)", "Measured attribute": "pIC50", "Endpoint result": "< 5.00"}
{"Compound": "C=CC(=O)N1CC[C@H](C(=O)N(C)[C@H](C(=O)N[C@H]2Cc3cc(O)cc(c3)-c3ccc4c(c3)c(c(-c3cc(F)cnc3COC)n4CC)CC(C)(C)COC(=O)[C@@H]3CCCN(N3)C2=O)C(C)C)C1", "Study system": "KRAS G12D (Homo sapiens (Human), UniProt P01116+P62937, G12D)", "Measured attribute": "pIC50", "Endpoint result": "5.00 to 6.00"}
{"Compound": "C=CC(=O)N1CCC2(C1)OCN([C@H](C(=O)N[C@H]1Cc3cccc(c3)-c3ccc4c(c3)c(c(-c3cccnc3[C@H](C)OC)n4CC)CC(C)(C)COC(=O)[C@@H]3CCCN(N3)C1=O)C(C)C)C2=O (some centres unmarked)", "Study system": "KRAS G12D (Homo sapiens (Human), UniProt P01116+P62937, G12D)", "Measured attribute": "pIC50", "Endpoint result": "5.00 to 6.00"}
{"Compound": "C=CC(=O)Nc1cnc(C(=O)N(C)[C@H](C(=O)N[C@H]2Cc3cccc(c3)-c3ccc4c(c3)c(c(-c3cccnc3[C@H](C)OC)n4CC)CC(C)(C)COC(=O)[C@@H]3CCCN(N3)C2=O)C(C)C)n1C (atropisomer, axis not shown) [Example A525]", "Study system": "KRAS G12D (Homo sapiens (Human), UniProt P01116+P62937, G12D)", "Measured attribute": "pIC50", "Endpoint result": "5.00 to 6.00"}

###

- Study system: K-Ras G13C (Homo sapiens (Human), UniProt P01116+P62937, G13C)
- Sequence (P01116-2 other isoform, or with tags, fused parts or gaps G13C): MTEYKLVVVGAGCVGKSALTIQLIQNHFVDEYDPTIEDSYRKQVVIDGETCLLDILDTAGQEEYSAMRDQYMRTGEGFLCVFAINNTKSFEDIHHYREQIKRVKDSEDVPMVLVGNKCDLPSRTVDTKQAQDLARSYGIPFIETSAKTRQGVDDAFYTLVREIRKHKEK
- Sequence (P62937 whole entry): as the sequence (P62937 whole entry) above
- Assay explanation: Ras-Raf (BRAF RBD) disruption / FRET / MOA assay, KRAS G13C
- Type: biochemical
- Experimental setup: KRAS G13C; Ras-Raf disruption/FRET/MOA assay; read-out: IC50* KRAS G13C FRET data
pIC50: −log10 of the molar value.

{"Molecule": "CCn1c(-c2cccnc2[C@H](C)OC)c2c3cc(ccc31)-c1csc(n1)C[C@H](NC(=O)CCOC1CN(C(=O)C#CC(C)(C)N3CCC3)C1)C(=O)N1CCC[C@H](N1)C(=O)OCC(C)(C)C2 (atropisomer, axis not shown)", "pIC50": "5.00 to 6.00"}
{"Molecule": "CC#CC(=O)N1CC[C@H](C(=O)N(C)[C@H](C(=O)N[C@H]2Cc3cccc(c3)-c3ccc4c(c3)c(c(-c3cccnc3[C@H](C)OC)n4C#N)CC(C)(C)COC(=O)[C@@H]3CCCN(N3)C2=O)C(C)C)C1 (atropisomer, axis not shown)", "pIC50": "< 5.00"}
{"Molecule": "CC#CC(=O)N1CC[C@@]2(CCN([C@H](C(=O)N[C@H]3Cc4cccc(c4)-c4ccc5c(c4)c(c(-c4cccnc4[C@H](C)OC)n5CC)CC(C)(C)COC(=O)[C@@H]4CCCN(N4)C3=O)C(C)C)C2=O)C1 (atropisomer, axis not shown)", "pIC50": "5.00 to 6.00"}
{"Molecule": "CCn1c(-c2cccnc2[C@H](C)OC)c2c3cc(ccc31)N1CCO[C@@H](C[C@H](NC(=O)[C@@H](COC3CCN(C(=O)C#CC(C)(C)N(C)C)CC3)C(C)C)C(=O)N3CCC[C@H](N3)C(=O)OCC(C)(C)C2)C1 (atropisomer, axis not shown)", "pIC50": "5.00 to 6.00"}
